Below, each entry is listed with its recorded GI50.
system: OVCAR-5 ovarian; experiment: NCI tumour cell line growth inhibition, 48 h
metric-name: GI50

1. COc1ccc(/C=C/c2cc(OC)c(OC)c(OC)c2)cc1NC(=O)/C=C/c1ccc(F)cc1: 5.97 µM
2. COc1cccc(-c2nc3sccn3c2-c2ccnc(NCCNC(=O)Nc3cccc(C(F)(F)F)c3)n2)c1: 6.37 µM
3. COC(=O)CCC/C=C\C[C@H]1C=CC(=O)/C1=C/C[C@@H](O)CCc1cccc(C(F)(F)F)c1: 3.79 µM

----------
test system: LOX IMVI melanoma; experiment: NCI tumour cell line growth inhibition, 48 h
metric-name: TGI (µM)

1. CCOC(=O)CCC(=O)C1c2cccc(O)c2C(=O)c2c(O)cccc21: 1.89
2. CN1CCN(Cc2ccc(NC(=O)c3cncc(C#Cc4cnc(N)c5ccc(F)cc45)c3)cc2C(F)(F)F)CC1: 4.27
3. NC(N)=N/N=C/c1nc2sccn2c1[N+](=O)[O-]: 56.1
4. COc1cc(/C=C/c2cc(C(F)(F)F)[nH]c(=O)n2)ccc1OCc1ccccc1F: 22

----------
test system: SF-268 CNS; experiment: NCI tumour cell line growth inhibition, 48 h
metric-name: GI50

1. O=c1ccn(C2OC(CO)C(O)C2O)c(=O)[nH]1 (stereo not given): > 1000 µM
2. CCCCCCC/C=C/[C@H]1O[C@]23C(=O)C[C@@]4(C[C@@H](OC5OC(CO)C(O)C(O)C5O)C[C@@H]4[C@H]2C=C1C)OC3=O (stereo not given in full): 5.12 µM
3. Cc1ccc(C(=O)c2oc3ccc4c(C)cc(=O)oc4c3c2C)cc1: 10.4 µM
4. O=C(Oc1ccc(O)c2c(=O)n3c(cc12)[nH]c1ccccc13)c1ccccc1: 61 µM
5. C[CH2][Sn]1([CH2]C)[O]C(=O)[O][Sn]([CH2]C)([CH2]C)[O]1: 18.9 µM

----------
system: A549 NSCLC; assay: NCI tumour cell line growth inhibition, 48 h
Below, each entry is listed with its recorded TGI.
metric-name: TGI

1) COc1ccc(OC)c2cc(Cc3ccc(N(C)C)cc3)c(=O)c(Cc3ccc(N(C)C)cc3)cc12: > 100 µM
2) Cc1nn(C(=O)c2ccccc2O)c2c1C(c1ccccc1)SC(N)=N2 (centres undefined): > 10 µM
3) CC(=O)O[C@H]1C(N(C)C(=O)c2ccccc2)CC[C@]2(C)C3CC[C@@]4(C)C(CC(O)[C@@H]4C(C)N(C)C)[C@@H]3CCC12 (some centres undefined): > 100 µM
4) CCN(CC)c1ccc(N=Nc2ccc(-c3nc4cccnc4o3)cc2)cc1: > 100 µM
5) CCOC(=O)C(O)(NC(C)=O)C(F)(F)F (centres undefined): > 100 µM
6) Cc1cc2nc3c(=O)n(C)c(=O)nc-3n(-c3ccc(Cl)cc3)c2cc1C: 16.4 µM
7) CSCCC(NC(=O)OC(C)(C)C)C(=O)NCCNc1ccc(NCCNC(=O)C(CCSC)NC(=O)OC(C)(C)C)c2c1C(=O)c1ccccc1C2=O (centres undefined): 7.93 µM
8) NC(CCCCNC(=O)OCc1ccccc1)C(=O)NC(CCCCNC(=O)OCc1ccccc1)C(=O)ON1C(=O)CCC1=O (centres undefined): > 100 µM
9) CC(C)c1ccc(Cc2cnc(NC(=O)c3cc(Br)cs3)s2)cc1: > 100 µM
